Origin of measurements: patent USRE47150

Answer each item with its documented variant/HC_K99L.
study_system: T1, human tissue factor pathway inhibitor (TFPI) (human, UniProt P10646 29-304, limits assumed)
T1 construct: bought; also called hTFPI; human TFPI
T1 sequence (looked up): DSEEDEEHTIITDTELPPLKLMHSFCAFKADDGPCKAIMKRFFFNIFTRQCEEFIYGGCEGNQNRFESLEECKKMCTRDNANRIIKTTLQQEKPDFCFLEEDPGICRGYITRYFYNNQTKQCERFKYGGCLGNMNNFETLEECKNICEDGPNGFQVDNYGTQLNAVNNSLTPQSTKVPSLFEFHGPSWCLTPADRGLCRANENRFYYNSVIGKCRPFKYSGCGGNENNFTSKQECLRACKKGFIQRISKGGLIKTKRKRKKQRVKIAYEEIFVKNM
assay_info: competitive ELISA

Q: What variant/HC_K99L value was documented for this binder, 2A8 HC S35D+S55R+K99L/LC Y48F+N51V+D91W+P95V (Fab, V domains shown) VH: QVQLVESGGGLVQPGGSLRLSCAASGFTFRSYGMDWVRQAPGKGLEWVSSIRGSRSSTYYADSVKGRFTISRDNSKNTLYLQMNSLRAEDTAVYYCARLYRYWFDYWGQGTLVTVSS VL: DIELTQPPSVSVAPGQTARISCSGDNLRNYYAHWYQQKPGQAPVVVIFYDVNRPSGIPERFSGSNSGNTATLTISGTQAEDEADYYCQSWWDGVVVFGGGTKLTVLG ?
Result: 15.7 ratio

Q: Recorded variant/HC_K99L of 2A8 HC Q1E+R30S+S35D+S55R+S56G+K99L/LC D1S+I2Y+A13S+S21T+R28P+N29K+Y48F+N51V+E80M+D91W (Fab, V domains shown) VH: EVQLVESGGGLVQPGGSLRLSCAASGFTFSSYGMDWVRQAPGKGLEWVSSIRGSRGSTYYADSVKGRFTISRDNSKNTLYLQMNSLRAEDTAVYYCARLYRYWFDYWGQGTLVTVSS VL: SYELTQPPSVSVSPGQTARITCSGDNLPKYYAHWYQQKPGQAPVVVIFYDVNRPSGIPERFSGSNSGNTATLTISGTQAMDEADYYCQSWWDGVPVFGGGTKLTVLG , please.
Result: 19.8 ratio

Q: Reported variant/HC_K99L for 2A8 HC S35D+S55R+K99L/LC Y48F+N51V+D91W+G93S (Fab, V domains shown) VH: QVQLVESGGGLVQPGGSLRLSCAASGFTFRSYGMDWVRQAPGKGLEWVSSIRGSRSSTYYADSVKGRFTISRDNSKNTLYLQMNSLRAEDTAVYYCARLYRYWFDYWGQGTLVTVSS VL: DIELTQPPSVSVAPGQTARISCSGDNLRNYYAHWYQQKPGQAPVVVIFYDVNRPSGIPERFSGSNSGNTATLTISGTQAEDEADYYCQSWWDSVPVFGGGTKLTVLG : what is it?
Result: 17 ratio
